# Procedure Summary: logP (pH2)
# Format: physicochemical
Measurement Name: logP (pH2)
Respond with the number and no other words.

CC1SC(SCCCCC=C(F)F)=NS1(=O)=O (racemic) : 3.31
O=S1(=O)CSC(SCCC=C(F)F)=N1 : 2.24
O=S1(=O)CSC(SCCCCC=C(F)F)=N1 : 2.99

So for O=S1(=O)CSC(SCCCCC(F)=C(F)F)=N1 , the logged logP (pH2) turned out to be 2.93

So for CC1SC(SCCCCC(F)=C(F)F)=NS1(=O)=O (racemic) , the logged logP (pH2) turned out to be 3.24

----------
# System: adults of Ctenocephalides felis
# Procedure Summary: Test with cat fleas/oral uptake
# Format: in vivo
# Condition Label: active compound concentration 100 ppm; after 28 h
Listed here are molecules together with their documented kill (mortality).
Expressed in %, but write only the number.

So for O=S1(=O)CSC(SCCC=C(F)F)=N1 , the logged kill (mortality) turned out to be 100

So for CC1SC(SCCC=C(F)F)=NS1(=O)=O (racemic) , the logged kill (mortality) turned out to be 91

So for O=S1(=O)CCSC(SCCCCC=C(F)F)=N1 , the logged kill (mortality) turned out to be 95

----------
Listed here are molecules together with their documented kill (mortality).
# System: adults of Ctenocephalides felis
# Procedure Summary: Test with cat fleas/oral uptake
# Format: in vivo
# Condition Label: active compound concentration 20 ppm; after 28 h
# Method: Test with Cat Fleas/Oral Uptake • Test animals: adults of Ctenocephalides felis • Solvent: dimethyl sulphoxide (DMSO) To produce a suitable formulation, a suitable solution of active compound is prepared from 20 mg of active compound and 1 ml of DMSO. 15 μl of this formulation are added to 3 ml of citrated cattle blood and stirred. […] After 28 h, the mortality in % (=dead fleas) is determined. […]
Expressed in %, but write only the number.

Past entries and their recorded results:
O=S1(=O)CCSC(SCCCCC=C(F)F)=N1 : 73
O=S1(=O)CCCSC(SCCCCC=C(F)F)=N1 : 89
CC1SC(SCCC=C(F)F)=NS1(=O)=O (racemic) : 79

So for CC1SC(SCCCCC=C(F)F)=NS1(=O)=O (racemic) , the logged kill (mortality) turned out to be 83

----------
Listed here are compounds together with their documented kill (mortality).
# Tested on: adults of Ctenocephalides felis
# Procedure Summary: Test with cat fleas/oral uptake
# Assay type: in vivo
# Condition Label: active compound concentration 100 ppm; after 28 h
Expressed in %, but write only the number.

CC1SC(SCCCCC=C(F)F)=NS1(=O)=O (racemic) : 95
O=S1(=O)CCCSC(SCCCCC=C(F)F)=N1 : 91

So for O=S1(=O)CSC(SCCCCC=C(F)F)=N1 , the logged kill (mortality) turned out to be 100
